Ki overview
Target: human vasopressin V1a receptor (Homo sapiens, UniProt P37288)
Sequence (P37288 whole entry): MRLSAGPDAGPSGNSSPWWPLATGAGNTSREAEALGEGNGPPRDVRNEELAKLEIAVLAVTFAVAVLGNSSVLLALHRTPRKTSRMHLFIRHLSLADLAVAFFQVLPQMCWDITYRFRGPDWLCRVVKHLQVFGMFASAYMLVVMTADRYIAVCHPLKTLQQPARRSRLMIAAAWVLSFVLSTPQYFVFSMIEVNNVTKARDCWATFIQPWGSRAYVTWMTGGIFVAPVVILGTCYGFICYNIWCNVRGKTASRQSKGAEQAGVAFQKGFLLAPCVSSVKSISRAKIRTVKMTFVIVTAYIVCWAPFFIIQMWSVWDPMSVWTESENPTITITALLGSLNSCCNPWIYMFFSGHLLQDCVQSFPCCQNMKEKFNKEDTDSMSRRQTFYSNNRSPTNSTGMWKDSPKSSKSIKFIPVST
Experiment: Human vasopressin V1a receptor binding assay
Conditions: 1321N1 cell membranes, [3H]vasopressin; read-out: Ki (nM) on hV1a cell line
Value expressed in nM; do not type the unit.

// below: answered compounds
COC1Cc2cc(Cl)ccc2-n2c(nnc2[C@H]2CCN(Cc3ccccn3)C2)C1 (some centres unmarked) [Example 253]: 5
CC(C)(C)OC(=O)NC1Cc2cc(Cl)ccc2-n2c(nnc2N2CCN(c3ncccc3Cl)CC2)C1 (centres unmarked) [Example 139]: 9.3
O=C1Cc2cc(Cl)ccc2-n2c(nnc2N2CCC3(CC2)OCc2ccccc23)C1 [Example 156]: 0.5
CN(C)CCN[C@@H]1Cc2cc(Cl)ccc2-n2c(nnc2[C@H]2CC[C@H](Oc3ccccn3)CC2)C1 [Example 194]: 1.1
Fc1ccc2c(c1)CC1(Cc3nnc([C@H]4CC[C@H](C(F)(F)F)CC4)n3-2)OCCO1 [Example 149]: 0.8
Clc1ccc2c(c1)CC1(Cc3nnc(N4CCC(Oc5ccccn5)CC4)n3-2)OCCO1 [Example 157]: 0.1
OC1Cc2cc(Cl)ccc2-n2c(nnc2N2CCC(Oc3ccccn3)CC2)C1 (centres unmarked) [Example 181]: 0.5

Consider the record given below.
Entry under test: Brc1ccc2c(c1)CC1(Cc3nnc([C@H]4CC[C@H](Oc5ccccn5)CC4)n3-2)OCCO1 [Example 62] . Its Ki was 0.2

* * *

Target: UniProtKB P37288
Assay: Human vasopressin V1a receptor binding assay
Details: 1321N1 cell membranes, [3H]vasopressin; read-out: Ki (nM) on hV1a cell line
Entries and their measured Ki follow.
Your reply should be a number followed by the unit it is expressed in.

Recorded results for 10 compounds are shown here.
COC(=O)[C@H]1CC[C@H](c2nnc3n2-c2ccc(Br)cc2CC(=O)C3)CC1 [Example 86]: 2.2 nM
COC1Cc2cc(Cl)ccc2-n2c(nnc2C2CCN(C(=O)OC(C)(C)C)CC2)C1 (stereo not shown) [Example 140]: 2.4 nM
O[C@@H]1Cc2cc(Cl)ccc2-n2c(nnc2[C@H]2CC[C@H](Oc3ccccn3)CC2)C1 [Example 57]: 0.3 nM
CN(C)[C@@H]1Cc2cc(Cl)ccc2-n2c(nnc2[C@H]2CC[C@H](Oc3ccccn3)CC2)C1 [Example 101]: 0.2 nM
Clc1ccc2c(c1)CC1(Cc3nnc([C@@H]4CCN(Cc5cccnc5)C4)n3-2)OCCO1 [Example 250]: 2.9 nM
Clc1ccc2c(c1)CC1(Cc3nnc([C@H]4CC[C@H](CN5CCCCC5)CC4)n3-2)OCCO1 [Example 69]: 10 nM
CC(C)(C)C(=O)N[C@@H]1Cc2cc(Cl)ccc2-n2c(nnc2[C@H]2CC[C@H](Oc3ccccn3)CC2)C1 [Example 123]: 2.1 nM
CC(C)NC1Cc2cc(C(F)(F)F)ccc2-n2c(nnc2[C@H]2CC[C@H](Oc3ccccn3)CC2)C1 (stereo partly shown) [Example 36]: 36 nM
Clc1ccc2c(c1)CC1(Cc3nnc(C4CCN(Cc5ccccn5)C4)n3-2)OCCO1 (stereo not shown) [Example 239]: 1.2 nM
COCCOC1Cc2cc(Cl)ccc2-n2c(nnc2[C@H]2CC[C@H](Oc3ccccn3)CC2)C1 (stereo partly shown) [Example 202]: 0.4 nM

Item CC(C)(C)OC(=O)NC1Cc2cc(Cl)ccc2-n2c(nnc2C2CCN(c3ccccn3)CC2)C1 (stereo not shown) [Example 1] ; assay system UniProtKB P37288; Ki reported as 6 nM

Summary line: OC1Cc2cc(Br)ccc2-n2c(nnc2[C@H]2CC[C@H](Oc3ccccn3)CC2)C1 (stereo partly shown) [Example 65] , UniProtKB P37288, reported Ki = 0.5 nM

Result for CN(C)C(=O)NC1Cc2cc(Cl)ccc2-n2c(nnc2[C@H]2CC[C@H](Oc3ccccn3)CC2)C1 (stereo partly shown) [Example 16] , tested on UniProtKB P37288, Ki: 3 nM

Simply: CC(C)N[C@H]1Cc2cc(Cl)ccc2-n2c(nnc2[C@H]2CC[C@H](Oc3ccccn3)CC2)C1 [Example 25] , UniProtKB P37288, Ki = 2.3 nM

Reported UniProtKB P37288 Ki for item O=C(N[C@@H]1Cc2cc(Cl)ccc2-n2c(nnc2[C@H]2CC[C@H](Oc3ccccn3)CC2)C1)C1CCOCC1 [Example 180] was 1.1 nM

Record OC1Cc2ccccc2-n2c(nnc2[C@H]2CC[C@H](Oc3ccccn3)CC2)C1 (stereo partly shown) [Example 107] / UniProtKB P37288, Ki recorded as 1 nM

* * *

Ki reference
Target: human vasopressin V1a receptor (Homo sapiens, UniProt P37288)
Assay: Human vasopressin V1a receptor binding assay
Conditions: 1321N1 cell membranes, [3H]vasopressin; read-out: Ki (nM) on hV1a cell line
I only need the number, in nM, no unit after it.

The cases that follow already have their Ki on record.
Clc1ccc2c(c1)CC1(Cc3nnc([C@H]4CC[C@H](Nc5ccccn5)CC4)n3-2)OCCO1 [Example 193]: 0.1
O/N=C1/Cc2cc(Cl)ccc2-n2c(nnc2[C@H]2CC[C@H](Oc3ccccn3)CC2)C1 [Example 208]: 0.1

Assay human vasopressin V1a receptor (Homo sapiens, UniProt P37288), sample CC(C)C(=O)N[C@H]1Cc2cc(Cl)ccc2-n2c(nnc2[C@H]2CC[C@H](Oc3ccccn3)CC2)C1 [Example 120] , Ki read: 52

Record for COC1(C)CCC(c2nnc3n2-c2ccc(Cl)cc2CC(NC(C)C)C3)CC1 (mixture of isomers) [Example 203] under target or system human vasopressin V1a receptor (Homo sapiens, UniProt P37288): Ki reported as 10.1

Hey, human vasopressin V1a receptor (Homo sapiens, UniProt P37288) data for CC(C)CN[C@H]1Cc2cc(Cl)ccc2-n2c(nnc2[C@H]2CC[C@H](Oc3ccccn3)CC2)C1 [Example 161] : Ki came out at 1.8

Lab entry: human vasopressin V1a receptor (Homo sapiens, UniProt P37288) assay, molecule COC1Cc2cc(Cl)ccc2-n2c(nnc2N2CCC3(CC2)OCc2ccccc23)C1 (centres unmarked) [Example 191] , Ki = 0.3

Measured Ki (human vasopressin V1a receptor (Homo sapiens, UniProt P37288)), entry OC1Cc2cc(Br)ccc2-n2c(nnc2[C@H]2CC[C@H](C(F)(F)F)CC2)C1 (some centres unmarked) [Example 93] : 3.2

Fill in: human vasopressin V1a receptor (Homo sapiens, UniProt P37288) Ki for CC(=O)OC1Cc2cc(Cl)ccc2-n2c(nnc2[C@H]2CC[C@H](Oc3ccccn3)CC2)C1 (some centres unmarked) [Example 195] = 0.3

* * *

Target: UniProtKB Q62463
Sequence (Q62463 whole entry): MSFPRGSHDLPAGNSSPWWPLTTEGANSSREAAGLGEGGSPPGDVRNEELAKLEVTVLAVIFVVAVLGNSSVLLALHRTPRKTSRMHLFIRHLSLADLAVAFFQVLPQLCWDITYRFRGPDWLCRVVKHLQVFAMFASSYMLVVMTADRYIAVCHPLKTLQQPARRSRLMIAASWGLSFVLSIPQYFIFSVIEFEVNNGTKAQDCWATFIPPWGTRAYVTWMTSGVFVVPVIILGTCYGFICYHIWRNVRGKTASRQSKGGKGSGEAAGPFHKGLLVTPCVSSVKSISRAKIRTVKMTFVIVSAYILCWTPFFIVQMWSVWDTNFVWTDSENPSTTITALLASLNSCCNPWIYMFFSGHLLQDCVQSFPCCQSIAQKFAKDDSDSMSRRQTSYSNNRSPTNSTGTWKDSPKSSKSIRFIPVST
Experiment: Functional V1a in vivo test: inhibition of oxytocin-induced scratching behaviour
Conditions: mice, 10 mg/kg p.o. pretreatment
TEST_READOUT: inhibition (%) of oxytocin-induced scratching behaviour response
Report the value in % with no unit label.

Clc1ccc2c(c1)CC1(Cc3nnc(N4CCC(Oc5ccccn5)CC4)n3-2)OCCO1: 108
COC1Cc2cc(Cl)ccc2-n2c(nnc2[C@H]2CC[C@H](Oc3ccccn3)CC2)C1 (mixture of isomers): 96
O=C1Cc2cc(Cl)ccc2-n2c(nnc2[C@H]2CC[C@H](Oc3ccccn3)CC2)C1: 70
CO[C@H]1Cc2cc(Cl)ccc2-n2c(nnc2[C@H]2CC[C@H](Oc3ccccn3)CC2)C1 (single isomer, unassigned): 71
COC1Cc2cc(Cl)ccc2-n2c(nnc2[C@H]2CC[C@H](C(F)(F)F)CC2)C1 (mixture of isomers): 30

Documented inhibition (%) of oxytocin-induced scratching behaviour response of "O[C@@H]1Cc2cc(Cl)ccc2-n2c(nnc2[C@H]2CC[C@H](Oc3ccccn3)CC2)C1" : 84

molecule "c1ccc(O[C@H]2CC[C@H](c3nnc4n3-c3ccccc3CC3(C4)OCCO3)CC2)nc1" , inhibition (%) of oxytocin-induced scratching behaviour response observed: 49

* * *

Entries and their Ki
Biological target: human vasopressin V1a receptor (Homo sapiens, UniProt P37288)
Assay: Human vasopressin V1a receptor binding assay
Settings: 1321N1 cell membranes, [3H]vasopressin; read-out: Ki (nM) on hV1a cell line
Return type: number; implicit unit nM.

CO[C@@H]1Cc2cc(Cl)ccc2-n2c(nnc2[C@H]2CC[C@H](C(F)(F)F)CC2)C1 (single isomer, unassigned): 0.3
O=C(N[C@@H]1Cc2cc(Cl)ccc2-n2c(nnc2[C@H]2CC[C@H](Oc3ccccn3)CC2)C1)C1CCC1: 0.8
CN(C)CCC(=O)N[C@H]1Cc2cc(Cl)ccc2-n2c(nnc2[C@H]2CC[C@H](Oc3ccccn3)CC2)C1: 20.5
CCN[C@H]1Cc2cc(Cl)ccc2-n2c(nnc2[C@H]2CC[C@H](Oc3ccccn3)CC2)C1: 1.9
CN(C)C1Cc2ccccc2-n2c(nnc2[C@H]2CC[C@H](Oc3ccccn3)CC2)C1 (stereo partly shown): 1.2
CCC[C@]1(OC)CC[C@@H](c2nnc3n2-c2ccc(Cl)cc2CC2(C3)OCCO2)CC1: 0.4

# input for lookup
# Ki of "Clc1ccc2c(c1)C[C@@H](N1CCCC1)Cc1nnc([C@H]3CC[C@H](Oc4ccccn4)CC3)n1-2" = 0.7
